// values below are reported Residual turnover
System: HPPD polypeptides (wild-type SEQ ID NO:1 and mutants)
ASSAY_CONDITIONS: in the presence of Cmpd. 1, 15 μM inhibitor, high substrate concentration; total change in signal normalized to no inhibitor
Quick note: give the figure in %, leave out the unit.

Measured Residual turnover, 14 (protein, mutant HPPD polypeptide) MADLYENPMGLMGFEFIEFASPTPGTLEPIFEIMGFTKVATHRSKNVHLYRQGEINLILNNEPNSIASYFAAEHGPSVCGMAFRVKDSQKAYNRALELGAQPIHIDTGPMELNLPAIKGIGGAPLYLIDRFGEGSSIYDIDFVYLEGVERNPVGAGLKVIDHLTHNVYRGRMVYWANFYEKLFNFREARYFDIKGEYTGLTSKAMSAPDGMIRIPLNEESSKGAGQIEEFLMQFNGEGIQHVAFLTDDLVKTWDALKKIGMRFMTAPPDTYYEMLEGRLPDHGEPVDQLQARGILLDGSSVEGDKRLLLQIFSETLMGPVFFEFIQRKGHDGFGPDSFKVLFESVERDQVRRGVLTAD : 60

Continuing:
Residual turnover recorded for this molecule, 18 (protein, mutant HPPD polypeptide) MADLYENPMGLMGFEFIEFASPTPGTLEPIFEIMGFTKVATHRSKNVHLYRQGEINLILNNEPNSIASYFAAEHGPSVCGMAFRVKDSQKAYNRALELGAQPIHIDTGPMELNLPAIKGIGGAPLYLIDRFGEGSSIYDIDFVYLEGVERNPVGAGLKVIDHLTHNVYRGRMVYWANFYEKLFNFREARYFDIKGEYTGLTSKAMSAPDGMIRIPLNEESSKGAGQIEEFLMQFNGEGIQHVAFLTDDLVKTWDALKKIGMRFRTAPPDTYYEMLEGRLPDHGEPVDQLQARGILLDGSSVEGDKRLLLQIFSETLMGPVFFEFIQRKGHDGFGPDSFKVLFESIERDQVRRGVLTAD , is 79

Values compiled from patent US10597674B2.
